Catalogue of compounds with associated EC50
target: GABABR1a/GABABR2 heterodimer (Homo sapiens, UniProt O75899+Q9UBS5); construct: membranes prepared from it); assay: [35S]-GTPγS binding assay, potency of PAM; conditions: potency of the positive allosteric modulator; log EC50 for GABA plotted against log concentration of modulator
Sequence (Q9UBS5 15-961 limits assumed): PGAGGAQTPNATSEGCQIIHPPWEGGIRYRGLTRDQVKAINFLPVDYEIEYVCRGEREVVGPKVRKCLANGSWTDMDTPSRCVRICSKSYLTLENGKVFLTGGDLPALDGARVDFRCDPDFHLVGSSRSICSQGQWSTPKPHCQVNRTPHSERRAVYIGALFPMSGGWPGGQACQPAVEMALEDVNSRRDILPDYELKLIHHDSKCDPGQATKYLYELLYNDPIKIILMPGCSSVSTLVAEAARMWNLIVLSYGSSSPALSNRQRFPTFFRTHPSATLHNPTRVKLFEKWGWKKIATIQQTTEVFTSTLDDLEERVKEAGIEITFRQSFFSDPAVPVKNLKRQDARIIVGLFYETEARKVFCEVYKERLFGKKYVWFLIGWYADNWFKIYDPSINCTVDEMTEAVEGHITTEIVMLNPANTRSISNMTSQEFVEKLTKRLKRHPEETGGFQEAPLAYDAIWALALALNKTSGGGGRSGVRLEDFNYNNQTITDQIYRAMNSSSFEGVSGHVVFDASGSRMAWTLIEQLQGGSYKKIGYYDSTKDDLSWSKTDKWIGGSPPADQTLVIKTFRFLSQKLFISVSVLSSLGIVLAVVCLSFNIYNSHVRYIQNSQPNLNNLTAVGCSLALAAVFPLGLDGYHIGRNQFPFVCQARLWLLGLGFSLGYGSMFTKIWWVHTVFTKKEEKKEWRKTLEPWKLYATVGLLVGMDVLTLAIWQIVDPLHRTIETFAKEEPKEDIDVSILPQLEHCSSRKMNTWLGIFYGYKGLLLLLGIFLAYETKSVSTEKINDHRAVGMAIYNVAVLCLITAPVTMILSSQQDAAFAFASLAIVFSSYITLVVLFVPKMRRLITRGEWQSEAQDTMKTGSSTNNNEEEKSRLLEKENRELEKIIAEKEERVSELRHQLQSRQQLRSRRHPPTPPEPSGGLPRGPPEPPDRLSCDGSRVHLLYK
Sequence (O75899 42-941): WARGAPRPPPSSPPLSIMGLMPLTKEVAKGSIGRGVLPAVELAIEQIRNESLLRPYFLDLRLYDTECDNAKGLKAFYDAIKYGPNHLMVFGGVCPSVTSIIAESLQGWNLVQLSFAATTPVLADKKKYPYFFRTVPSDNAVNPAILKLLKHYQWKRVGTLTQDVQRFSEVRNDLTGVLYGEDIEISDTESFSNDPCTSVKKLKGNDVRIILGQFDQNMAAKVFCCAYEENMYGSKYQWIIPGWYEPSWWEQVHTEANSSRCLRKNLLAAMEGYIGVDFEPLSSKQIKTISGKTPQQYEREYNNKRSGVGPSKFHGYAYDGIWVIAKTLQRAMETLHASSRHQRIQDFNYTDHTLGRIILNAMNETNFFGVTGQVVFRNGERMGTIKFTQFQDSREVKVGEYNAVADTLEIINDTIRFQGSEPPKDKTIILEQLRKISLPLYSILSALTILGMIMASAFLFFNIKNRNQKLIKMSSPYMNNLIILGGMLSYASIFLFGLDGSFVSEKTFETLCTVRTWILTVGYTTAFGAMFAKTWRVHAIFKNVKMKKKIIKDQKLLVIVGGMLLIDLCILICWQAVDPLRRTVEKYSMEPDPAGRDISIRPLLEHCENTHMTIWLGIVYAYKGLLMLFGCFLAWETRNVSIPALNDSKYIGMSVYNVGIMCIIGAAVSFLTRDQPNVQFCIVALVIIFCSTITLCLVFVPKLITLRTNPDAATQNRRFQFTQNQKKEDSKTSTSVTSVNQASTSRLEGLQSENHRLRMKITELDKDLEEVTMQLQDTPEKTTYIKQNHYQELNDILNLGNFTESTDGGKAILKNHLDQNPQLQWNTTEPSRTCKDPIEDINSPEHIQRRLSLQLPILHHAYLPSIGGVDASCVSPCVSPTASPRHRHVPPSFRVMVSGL
readout.type: EC50 (µM)

> print(dat)
                                   compound  data.value
1  CCOC(=O)c1nc(C(C)C)sc1NC(=O)C(CC)c1ccccc1 (centres unmarked) [Example 16]        1.96
2  CCOC(=O)c1nc(C(C)C)oc1NC(=O)c1ccc(C(C)(C)C)cc1 [Example 21]        7.23
